Source: PubChem BioAssay

Attribute: viability
# experiment: reversal of MRP1-mediated doxorubicin resistance, pilot screen, H69AR cells, doxorubicin co-treatment (AID 601)
# condition description: H69AR cells, CellTiter-Glo, 72 h; compound alone cytotoxicity; at 10 µM
Field: numeric (%). Do not append units.

Guide cases for viability, answers given:
CCOC(=O)Cn1c(N2CCOCC2)nc2c1c(=O)[nH]c(=O)n2C    88.1
CCOC(=O)CSc1nnc(-c2ccccc2OC)o1    94.8

Return viability for the following molecule: "Cc1cc(NC(=O)COC(=O)c2cccc(S(=O)(=O)N3CCOCC3)c2)no1"
91.1

Return viability for the following molecule: "CCc1nnc(NC(=O)c2cccc(C(=O)Nc3nnc(CC)s3)n2)s1"
8.87

Return viability for the following molecule: "Cc1ccccc1NC(=O)C1CCN(c2cnccn2)CC1"
101

Return viability for the following molecule: CCc1nnc(NC(=O)C2CC(=O)N(Cc3ccco3)C2)s1 (stereo unspecified)
98.4

Return viability for the following molecule: "Cc1cc(NCCN2CCCCC2)n2c(nc3ccccc32)c1C#N"
85.1

Return viability for the following molecule: CCOC(=O)C1CCN(c2nc3ccccc3nc2C(C#N)C(=O)OCCOC)CC1 (stereo unspecified)
79.4

Return viability for the following molecule: COc1ccc2nc(NC(=O)C(NS(=O)(=O)c3cccs3)C(C)C)sc2c1 (stereo unspecified)
92.7

Return viability for the following molecule: "COc1cc(OC)cc(-c2nnc(Nc3nc4c(F)cccc4s3)o2)c1"
69.4

Return viability for the following molecule: "Cc1cc(C)n(C2=NS(=O)(=O)c3ccccc32)n1"
101
